- protocol.text: Bioavailability in rat
- Type: ADME, organism-based
- applied.conditions: in vivo
observed.property: bioavailability (%)

chemical_string=COc1ccc(C(=O)NCCCOc2ccc(S(=O)(=O)C3(C(=O)NO)CCOCC3)cc2)cc1 observed_property=bioavailability result_unit=% meas_value=1.5

---

# IC50 per entry
- measurement.target: Neutrophil collagenase (Homo sapiens, UniProt P22894)
- Sequence (P22894 whole entry): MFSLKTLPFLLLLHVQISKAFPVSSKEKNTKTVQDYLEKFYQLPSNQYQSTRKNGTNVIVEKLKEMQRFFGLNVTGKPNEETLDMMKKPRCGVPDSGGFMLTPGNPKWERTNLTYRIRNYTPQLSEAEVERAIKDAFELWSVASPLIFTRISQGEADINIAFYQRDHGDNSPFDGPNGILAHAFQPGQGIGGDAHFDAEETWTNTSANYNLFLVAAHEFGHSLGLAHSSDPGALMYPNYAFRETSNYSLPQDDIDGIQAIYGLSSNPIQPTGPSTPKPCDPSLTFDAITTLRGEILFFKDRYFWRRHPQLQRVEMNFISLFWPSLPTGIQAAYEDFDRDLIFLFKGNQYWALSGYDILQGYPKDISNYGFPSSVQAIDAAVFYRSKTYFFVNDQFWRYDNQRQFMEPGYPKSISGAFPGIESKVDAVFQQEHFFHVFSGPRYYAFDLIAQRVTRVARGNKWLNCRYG
- protocol.text: Inhibition of human MMP8
observed.property: IC50 (nM)

chemical_string=CN(C)c1ccc(NC(=O)CCCOc2ccc(S(=O)(=O)C3(C(=O)NO)CCOCC3)cc2)cc1 measurement_target="Neutrophil collagenase (Homo sapiens, UniProt P22894)" limit_qualifier== meas_value=100
chemical_string=O=C(NCCCOc1ccc(S(=O)(=O)C2(C(=O)NO)CCOCC2)cc1)c1ccc(OC(F)(F)F)cc1 measurement_target="Neutrophil collagenase (Homo sapiens, UniProt P22894)" limit_qualifier== meas_value=140
chemical_string=CN(C)c1ccc(C(=O)C2CCN(c3ccc(S(=O)(=O)C4(C(=O)NO)CCOCC4)cc3)CC2)cc1 measurement_target="Neutrophil collagenase (Homo sapiens, UniProt P22894)" limit_qualifier=> meas_value=10000
chemical_string=Cc1ccc(C(=O)NCCCOc2ccc(S(=O)(=O)C3(C(=O)NO)CCOCC3)cc2)c(C)c1 measurement_target="Neutrophil collagenase (Homo sapiens, UniProt P22894)" limit_qualifier== meas_value=700
